Parameter: pIC50. Scope: all listed entries.
- ASSAY TARGET: TRPC5 channel (Homo sapiens, UniProt Q9UL62)
- Construct: expressed in transfected cells; host or cells: HEK293/TREx (Invitrogen), stably transfected, induced with tetracycline
- Sequence (Q9UL62 1-973): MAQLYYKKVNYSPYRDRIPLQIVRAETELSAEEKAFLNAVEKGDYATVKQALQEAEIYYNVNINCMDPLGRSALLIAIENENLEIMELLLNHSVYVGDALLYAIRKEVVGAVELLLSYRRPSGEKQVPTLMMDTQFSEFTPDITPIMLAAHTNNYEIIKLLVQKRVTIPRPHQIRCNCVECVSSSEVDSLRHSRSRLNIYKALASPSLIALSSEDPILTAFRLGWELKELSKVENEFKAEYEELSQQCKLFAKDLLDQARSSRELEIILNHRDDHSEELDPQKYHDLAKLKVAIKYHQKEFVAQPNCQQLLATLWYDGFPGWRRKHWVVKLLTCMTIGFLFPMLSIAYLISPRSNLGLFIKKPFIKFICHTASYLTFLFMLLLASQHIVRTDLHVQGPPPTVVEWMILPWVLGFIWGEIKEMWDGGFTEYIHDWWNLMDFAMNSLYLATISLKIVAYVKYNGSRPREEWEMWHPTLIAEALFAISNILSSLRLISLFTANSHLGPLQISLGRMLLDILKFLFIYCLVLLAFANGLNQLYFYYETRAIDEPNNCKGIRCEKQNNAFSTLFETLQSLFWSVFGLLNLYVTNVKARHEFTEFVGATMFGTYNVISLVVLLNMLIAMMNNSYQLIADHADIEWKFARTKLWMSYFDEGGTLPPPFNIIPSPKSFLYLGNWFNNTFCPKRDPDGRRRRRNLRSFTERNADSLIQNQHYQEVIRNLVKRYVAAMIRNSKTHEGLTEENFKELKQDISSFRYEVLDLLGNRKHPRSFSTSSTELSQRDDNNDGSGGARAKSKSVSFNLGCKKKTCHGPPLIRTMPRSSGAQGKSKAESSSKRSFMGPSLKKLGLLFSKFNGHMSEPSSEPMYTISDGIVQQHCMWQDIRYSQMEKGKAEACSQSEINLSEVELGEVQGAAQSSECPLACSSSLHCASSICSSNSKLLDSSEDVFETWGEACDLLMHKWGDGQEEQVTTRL
- TEST PROTOCOL: High throughput screening assay: Fluo4 cell-based fluorescence assay of intracellular Ca2+ rise in HEK293/TREx cells inducibly expressing TRPC5
- TEST PARAMETERS: Table 2, Ca2+ influx, 14 mM Ca2+
Quick note: pIC50 means taking -log10 of the concentration in moles per liter.

1. Cn1c(=O)n(CCCO)c(=O)c2c(Cc3ccccc3)c(-c3cccc(OC(F)(F)F)c3)ccc21 = 7.51
2. Cn1c(=O)n(CCCO)c(=O)c2c(Cc3ccccc3)c(Oc3cccc(Cl)c3)ccc21 = 6.40
3. COc1ccc2c(c1Cc1ccccc1)c(=O)n(CCCO)c(=O)n2C = 7.57
4. CCCOc1ccc2c(c1Cc1ccc(F)cc1)c(=O)n(CCCO)c(=O)n2C = 8.77

API: the following record is the query input.
// fetch pIC50 given entry "Cn1c(=O)n(CCCO)c(=O)c2c(Cc3ccc(F)cc3)c(Oc3cccc(OC(F)(F)F)c3)ccc21"
7.21

* * *

Parameter: pIC50. Scope: all listed entries.
- ASSAY TARGET: TRPC5 channel (Homo sapiens)
- Construct: expressed in transfected cells; host or cells: HEK293/TREx (Invitrogen), stably transfected, induced with tetracycline
- TEST PROTOCOL: Whole-cell patch clamp experiments, TRPC5 current activated by LaCl3 in TRPC5-expressing HEK293 TREx cells
- Format: cell-based
- TEST PARAMETERS: Table 3, block of TRPC5 current in continued presence of LaCl3, IC50 estimated
Quick note: pIC50 means taking -log10 of the concentration in moles per liter.

Known results for compounds:
1. CCOc1ccc2c(c1Cc1ccc(Cl)cc1)c(=O)n(CCCO)c(=O)n2C = 8.38
2. Cn1c(=O)n(CCCO)c(=O)c2c(Cc3ccc(F)cc3)c(Oc3cccc(OC(F)(F)F)c3)ccc21 = 8.75
3. Cn1c(=O)n(CCCO)c(=O)c2c(Cc3ccc(Cl)cc3)c(Oc3cccc(OC(F)(F)F)c3)ccc21 = 8.82
4. CCCOc1ccc2c(c1Cc1ccc(Cl)cc1)c(=O)n(CCCO)c(=O)n2C = 8.37
5. Cn1c(=O)n(CCCO)c(=O)c2c(Cc3ccccc3)c(Oc3cccc(Cl)c3)ccc21 = 8.68

API: the following record is the query input.
// fetch pIC50 given entry "CCCOc1ccc2c(c1Cc1ccc(F)cc1)c(=O)n(CCCO)c(=O)n2C"
8.70
